test: inhibitors of E-selectin induction by TNFa, primary screen, imaging, HUVEC, immunofluorescence, MLSMR starter and 10KST1 sets (AID 487); settings: HUVEC TNFalpha-induced E-selectin immunofluorescence imaging, at 2 µM; measured here: cell number, toxicity;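 note: 100% = median nuclei count of all wells on the same plate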
MEASURED_QUANTITY: nuclei count
Numeric answer plus unit only.

INSERT INTO results (smiles_entry, recorded_result) VALUES
  ('Cn1c(=O)[nH]c(=O)c2c1nc(N1CCNCC1)n2CCOc1ccccc1', '124%'),
  ('N#Cc1nc(COc2ccc(Cl)cc2)oc1N1CCN(Cc2ccccc2)CC1', '139%'),
  ('CC1(C)Cc2c(c(N3CCOCC3)nc3sc4c(NCc5ccco5)nnnc4c23)CS1', '116%'),
  ('O=P1(O)C=C(c2ccccc2)NC(c2ccccc2)=C1', '117%'),
  ('O=C(NCc1ccccc1)c1ccc(OC2CSC2)cc1', '108%');

Shifting focus to the molecule that follows.
Query: Find the measured nuclei count of Cc1cc(=O)n2[nH]c(N3C(=O)CCC3=O)nc2n1 and report it.
Response: 172%
